biological target: HDAC4 (Homo sapiens, UniProt P56524); assay: HDAC enzyme activity assay; format: biochemical; conditions: read-out: Residual HDAC4 activity at 50 μM
Sequence (P56524 648-1057 limits assumed): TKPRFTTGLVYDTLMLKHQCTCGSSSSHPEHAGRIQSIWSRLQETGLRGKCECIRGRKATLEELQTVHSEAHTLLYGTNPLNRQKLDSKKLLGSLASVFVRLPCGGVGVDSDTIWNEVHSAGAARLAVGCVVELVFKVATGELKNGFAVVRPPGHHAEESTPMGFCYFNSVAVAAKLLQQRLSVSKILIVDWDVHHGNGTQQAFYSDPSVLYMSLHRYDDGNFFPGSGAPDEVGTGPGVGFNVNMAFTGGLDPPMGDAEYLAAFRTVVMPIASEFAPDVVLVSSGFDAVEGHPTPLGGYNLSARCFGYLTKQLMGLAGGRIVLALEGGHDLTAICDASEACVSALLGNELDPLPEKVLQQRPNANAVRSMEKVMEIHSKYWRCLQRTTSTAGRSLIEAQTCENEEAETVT
Reported Endpoint: remaining activity at 50 µM (%)

INSERT INTO measurements (compound, obs_value) VALUES
  ('O=C(CN1C(=O)SC(=Cc2ccccn2)C1=O)Nc1ccc(Cl)cc1C(F)(F)F [Compound P7]', 100),
  ('O=C(CN1C(=O)SC(=Cc2ccccn2)C1=O)Nc1nc2ccccc2s1 [Compound P19]', 97),
  ('O=C(CN1C(=O)SC(=Cc2ccccn2)C1=O)Nc1ccc(Br)cc1 [Compound P22]', 100),
  ('O=C(CN1C(=O)SC(=Cc2ccccn2)C1=O)Nc1c(F)cc(Br)cc1F [Compound P15]', 100),
  ('O=C(CN1C(=O)SC(=Cc2ccccn2)C1=O)Nc1ccccc1 [Compound P1]', 100),
  ('O=C(CN1C(=O)SC(=Cc2ccccn2)C1=O)Nc1cc(C(F)(F)F)ccc1Cl [Compound P9]', 100),
  ('O=C(CN1C(=O)SC(=Cc2ccccn2)C1=O)Nc1ccc(Cl)c(Cl)c1 [Compound P8]', 100),
  ('O=C(CN1C(=O)SC(=Cc2ccccn2)C1=O)Nc1ccc(Br)c(Br)c1 [Compound P25]', 86),
  ('COc1ccc(NC(=O)CN2C(=O)SC(=Cc3ccccn3)C2=O)cc1 [Compound P14]', 100),
  ('O=C(CN1C(=O)SC(=Cc2ccccn2)C1=O)Nc1ccc([N+](=O)[O-])cc1 [Compound P16]', 100);

----------
target: HDAC8 (Homo sapiens); assay: HDAC enzyme activity assay; type: biochemical; conditions: read-out: Residual HDAC8 activity at 50 μM
Sequence (Q9BY41 whole entry): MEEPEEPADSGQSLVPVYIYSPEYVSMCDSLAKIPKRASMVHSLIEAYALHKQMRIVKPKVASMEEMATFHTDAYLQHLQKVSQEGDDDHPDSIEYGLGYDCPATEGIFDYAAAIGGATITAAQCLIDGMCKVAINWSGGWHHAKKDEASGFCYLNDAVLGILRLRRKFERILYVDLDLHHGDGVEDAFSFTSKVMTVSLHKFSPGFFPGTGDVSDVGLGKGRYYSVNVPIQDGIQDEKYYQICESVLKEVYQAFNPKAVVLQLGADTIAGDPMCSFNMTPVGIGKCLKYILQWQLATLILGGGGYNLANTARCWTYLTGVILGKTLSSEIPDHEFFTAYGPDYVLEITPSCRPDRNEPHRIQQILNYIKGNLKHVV
Reported Endpoint: remaining activity at 50 µM (%)

INSERT INTO results (structure_string, target, obs_value) VALUES
  ('O=C(CN1C(=O)SC(=Cc2ccccn2)C1=O)Nc1ccc(Cl)cc1C(F)(F)F', 'HDAC8 (Homo sapiens)', 61);

1 = O=C(CN1C(=O)SC(=Cc2ccccn2)C1=O)Nc1nccs1
2 = O=C(CN1C(=O)SC(=Cc2ccccn2)C1=O)Nc1ccccn1
Req: Which shows the larger remaining activity at 50 µM value: 1 or 2 ? Write the label of whichever entry you select.
Resp: 1
(1: 92%, 2: 54%)

----------
target: HDAC4 (Homo sapiens); test: HDAC enzyme activity assay; assay type: biochemical
Reported Endpoint: IC50

Solved cases (3 shown):
INSERT INTO measurements (structure_string, obs_value) VALUES
  ('Cc1cnc(NC(=O)CN2C(=O)SC(=Cc3ccccn3)C2=O)s1', '> 50 µM'),
  ('O=C(CN1C(=O)SC(=Cc2ccccn2)C1=O)Nc1ccccc1Oc1ccccc1', '> 50 µM'),
  ('O=C(CN1C(=O)SC(=Cc2ccccn2)C1=O)Nc1ccc(F)cc1F', '50 µM');

Req: Which measured IC50 value corresponds to COc1ccc(NC(=O)CN2C(=O)SC(=Cc3ccccn3)C2=O)cc1 ?
Resp: > 50 µM

----------
molecular target: UniProtKB Q9BY41; experiment: HDAC enzyme activity assay; assay type: biochemical; settings: read-out: Residual HDAC8 activity at 50 μM
Reported Endpoint: remaining activity at 50 µM (%)

Some solved entries appear below for comparison.
INSERT INTO results (molecule, reported_endpoint, units, obs_value) VALUES
  ('Cc1c(NC(=O)CN2C(=O)SC(=Cc3ccccn3)C2=O)c(=O)n(-c2ccccc2)n1C', 'remaining activity at 50 µM', '%', 17),
  ('O=C(CN1C(=O)SC(=Cc2ccccn2)C1=O)Nc1ccccc1Oc1ccccc1', 'remaining activity at 50 µM', '%', 91),
  ('O=C(CN1C(=O)SC(=Cc2ccccn2)C1=O)Nc1cccc(C(F)(F)F)c1', 'remaining activity at 50 µM', '%', 82),
  ('Cc1cnc(NC(=O)CN2C(=O)SC(=Cc3ccccn3)C2=O)s1', 'remaining activity at 50 µM', '%', 54),
  ('Cc1ccc(NC(=O)CN2C(=O)SC(=Cc3ccccn3)C2=O)cc1Cl', 'remaining activity at 50 µM', '%', 88),
  ('O=C(CN1C(=O)SC(=Cc2ccccn2)C1=O)Nc1ccc(Br)cc1', 'remaining activity at 50 µM', '%', 64);

a = O=C(CN1C(=O)SC(=Cc2ccccn2)C1=O)Nc1ccc(Br)c(Br)c1
b = O=C(CN1C(=O)SC(=Cc2ccccn2)C1=O)Nc1cccc(F)c1
Req: Field: entry with larger remaining activity at 50 µM (options a / b ). Selection: enter the item's label.
Resp: a
(a: 89%, b: 53%)

1 = O=C(CN1C(=O)SC(=Cc2ccccn2)C1=O)Nc1ccc(F)cc1F
2 = O=C(CN1C(=O)SC(=Cc2ccccn2)C1=O)Nc1nc2ccccc2s1
3 = O=C(CN1C(=O)SC(=Cc2ccccn2)C1=O)Nc1cc(C(F)(F)F)ccc1Cl
Req: Highest remaining activity at 50 µM first, then in falling order down to the smallest. Output the labels ranked as instructed.
Resp: 1, 3, 2
